# System: CHIKV nsP1
# RUN DESCRIPTION: HTS validation potency repeatability, EC50 of GTP analogs in two independent FP runs
# ASSAY CONDITIONS: first set of rows
For each entry below, report its Geometric Mean Potency value.
Please give only the number in your answer, with no unit.

Inquiry: # get_value(readout= Geometric Mean Potency, system= CHIKV nsP1) for Nc1nc2c(ncn2[C@@H]2O[C@H](COP(=O)(O)OP(=O)(O)O)[C@@H](O)[C@H]2O)c(=O)[nH]1
Reply text: 4.329

Inquiry: Please answer likewise for Nc1nc2c(ncn2[C@H]2C[C@H](O)[C@@H](COP(=O)(O)OP(=O)(O)OP(=O)(O)O)O2)c(=O)[nH]1
Reply text: 5.4125

Inquiry: Please answer likewise for O=c1[nH]cnc2c1ncn2[C@@H]1O[C@H](COP(=O)(O)OP(=O)(O)OP(=O)(O)O)[C@@H](O)[C@H]1O
Reply text: 4.642

Inquiry: Please answer likewise for Nc1nc2c(ncn2[C@@H]2O[C@H](COP(=O)(O)OP(=O)(O)OP(=O)(O)O)[C@@H](O)[C@H]2O)c(=O)[nH]1
Reply text: 5.173

Inquiry: Please answer likewise for Nc1nc2c(ncn2[C@@H]2O[C@H](COP(=O)(O)OP(=O)(O)OP(=O)(O)OC[C@H]3O[C@@H](n4cnc5c(N)ncnc54)[C@H](O)[C@@H]3O)[C@@H](O)[C@H]2O)c(=O)[nH]1
Reply text: 4.749

Inquiry: Please answer likewise for Nc1nc2c(ncn2[C@@H]2O[C@H](COP(=O)(O)O)[C@@H](O)[C@H]2O)c(=O)[nH]1
Reply text: 3.81

Inquiry: Please answer likewise for C[n+]1cn([C@@H]2O[C@H](COP(=O)([O-])OP(=O)(O)OP(=O)(O)OC[C@H]3O[C@@H](n4cnc5c(N)ncnc54)[C@H](O)[C@@H]3O)[C@@H](O)[C@H]2O)c2nc(N)[nH]c(=O)c21
Reply text: 4.163
